meta.source: ChEMBL document CHEMBL3988442

# method: In vitro enzyme assay to detect hydrolysis of chlorophenol red-beta-D-[…] directly proportional to the number of Toxoplasma stably expressing beta-galactosidase
# Assay type: functional, organism-based, Toxoplasma gondii
# Design: scale not given: in the data most compounds retested in dose-response had high values
# condition label: 50 µM
Hit rate of the full screen: of about 85,000 compounds, about 440 (0.52%) showed an effect of 50% or more. What follows is part of a selection rich in strong results, with near analogues and random picks from the rest.
property label: Percent Effect (%)

{"compound": "O=C1CC(C(=O)N2CCOC3(CCCC3)C2)CCN1 (configuration not stated)", "units label": "%", "quantitative readout": -8.974}
{"compound": "Cc1ccccc1-c1nnn(CC(O)CC(F)(F)F)n1 (configuration not stated)", "units label": "%", "quantitative readout": -8.034}
{"compound": "CNc1cc(-c2cccc(OC)c2)[nH]n1", "units label": "%", "quantitative readout": 98.42}
{"compound": "CCc1ccccc1-n1c(CNC)n[nH]c1=O", "units label": "%", "quantitative readout": 9.34}
{"compound": "CNC(=O)NC(=O)CCN1CCCCC1", "units label": "%", "quantitative readout": -8.963}
{"compound": "COCCCOc1cc(C)ccc1CN", "units label": "%", "quantitative readout": -20.96}
{"compound": "CCC(=O)NC1CCCc2nc(N(C)C)ncc21 (configuration not stated)", "units label": "%", "quantitative readout": 69.08}

====

# method: In vitro enzyme assay to detect hydrolysis of chlorophenol red-beta-D-[…] directly proportional to the number of Toxoplasma stably expressing beta-galactosidase
# Assay type: functional, organism-based, Toxoplasma gondii
# Design: scale not given: in the data most compounds retested in dose-response had high values
# condition label: 50 µM
About 440 (0.52%) of roughly 85,000 compounds showed an effect of 50% or more. What follows is part of a selection rich in strong results, with near analogues and random picks from the rest.

{"compound": "CN(Cc1ccccc1)C1(CN)CCC1", "Percent Effect": "-8.467%"}
{"compound": "CNCC1CCN(C(=O)Nc2ccccc2)CC1", "Percent Effect": "-5.234%"}
{"compound": "NCCOc1cccc(C(F)(F)F)n1", "Percent Effect": "-9.845%"}
{"compound": "CCOCCN1CCN(CC(C)O)CC1 (centres undefined)", "Percent Effect": "-13.93%"}
{"compound": "N#Cc1ccc(C(=O)NCCCc2csc(N)n2)cn1", "Percent Effect": "3.81%"}
{"compound": "NCc1cccc(-c2ccccn2)n1", "Percent Effect": "73.75%"}
{"compound": "COCC(C)(CCO)NCc1cccc(F)c1 (centres undefined)", "Percent Effect": "2.377%"}
{"compound": "O=C(CSCC(=O)NC1CC1)Nc1ccccc1", "Percent Effect": "16.41%"}
{"compound": "NS(=O)(=O)CC1CCN(C(=O)Nc2ccccc2)CC1", "Percent Effect": "13.92%"}
{"compound": "NC1CCN(C(=O)Nc2ccccc2)C1 (centres undefined)", "Percent Effect": "93.84%"}
{"compound": "CCOc1ccccc1C(=O)N1CCC(N)CC1", "Percent Effect": "9.165%"}
{"compound": "O=C(CN1CCn2ccnc2C1)Nc1ccc(Cl)cn1", "Percent Effect": "-8.564%"}
{"compound": "NCC(C(=O)N1CCC2(CCC2)C1)c1ccccc1 (centres undefined)", "Percent Effect": "20.55%"}
{"compound": "CCOc1ccc(C(=O)N2CCC(N)CC2)cc1", "Percent Effect": "56.89%"}
